Consider the following pKi values measured on Sodium-dependent serotonin transporter (Rattus norvegicus).
Sequence (P31652 whole entry): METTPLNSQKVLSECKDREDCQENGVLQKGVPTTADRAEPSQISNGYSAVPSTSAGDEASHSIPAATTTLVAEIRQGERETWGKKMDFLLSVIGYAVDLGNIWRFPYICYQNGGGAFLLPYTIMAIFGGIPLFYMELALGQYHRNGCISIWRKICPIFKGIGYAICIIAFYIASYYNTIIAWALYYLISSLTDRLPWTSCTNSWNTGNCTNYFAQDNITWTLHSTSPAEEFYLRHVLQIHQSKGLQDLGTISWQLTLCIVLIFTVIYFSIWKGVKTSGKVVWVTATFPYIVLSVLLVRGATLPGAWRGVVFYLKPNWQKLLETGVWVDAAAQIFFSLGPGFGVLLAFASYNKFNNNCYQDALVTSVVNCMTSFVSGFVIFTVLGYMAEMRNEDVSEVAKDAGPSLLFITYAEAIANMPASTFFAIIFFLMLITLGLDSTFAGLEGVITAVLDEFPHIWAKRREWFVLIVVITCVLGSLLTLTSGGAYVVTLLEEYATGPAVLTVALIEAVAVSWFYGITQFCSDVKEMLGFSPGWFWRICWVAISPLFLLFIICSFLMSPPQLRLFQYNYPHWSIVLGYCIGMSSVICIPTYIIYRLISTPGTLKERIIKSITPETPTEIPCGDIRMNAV
Answers are plain numbers, as −log10 of the molar value.

Solved cases (6 shown):
                                   compound  measurement_type  quantitative_result
0  COc1ccc2[nH]cc(C3CCN(CCCCn4c(=O)c(-c5ccc(C)cc5)c5ccccn5c4=O)CC3)c2c1               pKi                 6.65
1  O=c1c(-c2ccc(F)cc2)c2ccccn2c(=O)n1CCCCN1CCC(c2c[nH]c3ccccc23)CC1               pKi                 7.42
2  O=c1c(-c2ccccc2F)c2ccccn2c(=O)n1CCCCN1CCC(c2c[nH]c3ccccc23)CC1               pKi                 9.15
3  O=c1c(-c2ccccc2)c2ccccn2c(=O)n1CCCCN1CCC(c2c[nH]c3ccccc23)CC1               pKi                 7.24
4  O=c1c(-c2ccc(Cl)cc2)c2ccccn2c(=O)n1CCCCN1CCC(c2c[nH]c3ccccc23)CC1               pKi                 6.55
5  COc1ccc2[nH]cc(C3CCN(CCCCn4c(=O)c(-c5ccc(F)cc5)c5ccccn5c4=O)CC3)c2c1               pKi                 7.26

Now consider a different molecule.
// query State the recorded pKi for this entry: COc1ccc(-c2c(=O)n(CCCCN3CCC(c4c[nH]c5ccccc45)CC3)c(=O)n3ccccc23)cc1
// result 6.84
